System: SUDHL10
Assay: Induction of caspase-3/7 activity (Caspase-Glo 3/7), SUDHL10
Format: cell-based
Conditions: Homo sapiens, SU-DHL10, 3 h, caspase-3/7 induction, SUDHL10 cells, 3 h treatment; median
From the text: Induction of Caspase-317 Activity Upon Treatment of Cells with Selected Compounds The BH3-domain of MCL-1 sequesters pro-apoptotic proteins, thereby inhibiting apoptosis. In contrast, MCL-1 inhibitors are expected to antagonize this effect leading to an increase in apoptosis, which can be determined by measuring the activity of caspase-3/7. […] For the evaluation of the results, the background measured with “medium-only” was subtracted from all other values. […]
measured-attribute: EC50

EC50 lookup needed for Cc1nn(C)c2c1-c1cccc3c(CCCOc4cccc5ccccc45)c(C(=O)O)n(c13)CCCOC2 (racemic) [Example 043] , thanks.
> 33 µM

Next up: Cn1nc(CN2CCCC2)c2c1COCCCCn1c(C(=O)O)c(CCCOc3cccc4ccccc34)c3cccc-2c31 (single isomer, unassigned; enantiomer 1) [Example 336]
> 33 µM

Next up: Cn1nc(COC(=O)NCC(F)(F)F)c2c1COCCCCn1c(C(=O)O)c(CCCOc3cccc4ccccc34)c3cccc-2c31 (single isomer, unassigned; enantiomer 1) [Example 343]
> 33 µM

Next up: Cc1ccc2c(OCCCc3c(C(=O)O)n4c5c(cccc35)-c3c(nn(C)c3C)COCCCC4)cccc2c1 (single isomer, unassigned; enantiomer 1) [Example 308]
> 33 µM

Next up: Cc1c2c(nn1C)COC/C=C\Cn1c(C(=O)O)c(CCCOc3cccc4ccccc34)c3cccc-2c31 (racemic) [Example 062]
18.1 µM

Next up: Cc1nn(C)c2c1-c1cccc3c(CCCOc4cccc5cc(Cl)ccc45)c(C(=O)O)n(c13)CCCCOC2 (single isomer, unassigned; enantiomer 1) [Example 041]
18.2 µM

Next up: Cc1nn(C)c2c1-c1cccc3c(CCCOc4cccc5c4CCCC5)c(C(=O)O)n(c13)CCCOC2 (racemic) [Example 005]
> 33 µM

Next up: Cc1ccc2c(OCCCc3c(C(=O)O)n4c5c(cccc35)-c3c(nn(C)c3C)COCCCC4)cccc2c1 (racemic) [Example 307]
> 33 µM

###

test system: SUDHL5; assay: Anti-proliferative effect (CellTiter-Glo, 72 h), SUDHL5; format: cell-based; conditions: Homo sapiens, SU-DHL-5, 72 h, SUDHL5 cells, antiproliferation, 72 h incubation, median, read-out: Antiproli SUDHL5 [M] (median)
measured-attribute: IC50 (M)
Please state the figure in M; there is no need to write the unit.

IC50 lookup needed for Cc1nn(C)c2c1-c1cccc3c(CCCOc4cccc5cc(Cl)ccc45)c(C(=O)O)n(c13)CCCCOC2 (single isomer, unassigned; enantiomer 1) [Example 041] , thanks.
9.88e-06

Next up: Cn1nc(CC(F)(F)F)c2c1COCCCCn1c(C(=O)O)c(CCCOc3cccc4ccccc34)c3cccc-2c31 (racemic) [Example 219]
9.95e-06

Next up: Cc1ccc2c(C(C)CCOc3cccc4cc(F)ccc34)c(C(=O)O)n3c2c1-c1c(nn(C)c1C)COCCCC3 (racemic)
5.85e-06

Next up: CCn1nc2c(c1C1CC1)-c1cccc3c(CCCOc4cccc5ccccc45)c(C(=O)O)n(c13)CCCCOC2 (racemic) [Example 081]
9.61e-06
